assay: in vitro; conditions: human
Endpoint label: CC50 (µM)
Give the quantity in µM, number only.

INPUT: Need CC50 of Nc1ccn([C@@H]2O[C@H](CO)[C@@H](O)C2(F)F)c(=O)n1 [Gemcitabine] , thanks.
OUTPUT: 88.5

INPUT: Entry to check: COc1ccc2cc1Oc1ccc(cc1)C[C@H]1c3c(cc4c(c3Oc3cc5c(cc3OC)CCN(C)[C@@H]5C2)OCO4)CCN1C [Cepharanthine]
OUTPUT: 16.2

====

experiment: in vitro; details: human
Endpoint label: CC50

{"columns": ["Molecule", "CC50"],
 "data": [
  ["COc1c(C)c2c(c(O)c1C/C=C(\\C)CCC(=O)O)C(=O)OC2", "> 100 µM"],
  ["CN(C)c1ccc2nc3ccc(=[N+](C)C)cc-3sc2c1", "> 25 µM"]
]}

INPUT: Need CC50 of COc1c(C)c2c(c(O)c1C/C=C(\C)CCC(=O)OCCN1CCOCC1)C(=O)OC2 [Mycophenolate mofetil] , thanks.
OUTPUT: > 100 µM
